System: CD2F1 mice, L1210 leukemia ip, survival T/C
Test: NCI In Vivo Anticancer Drug Screen. Data for tumor model L1210 Leukemia (intraperitoneal) in CD2F1 (CDF1) mice
Details: endpoint: mean survival time; dose: 200.0 mg/kg/injection; schedule: Q01DX009 (ip); vehicle: saline with Tween-80; higher = longer survival
Inconclusive results and toxic doses are left out.
Attribute measured: T/C

* COc1cc(OC)c(NC(=O)Oc2ccc(F)cc2Cl)cc1Cl | 103 % of control

Problem: # lookup: T/C of CC(=O)NCc1cc(CNC(C)=O)c(C)cc1C
Solution: 88 % of control

Problem: # lookup: T/C of Nc1[nH]c(=O)[nH]c(=O)c1N
Solution: 93 % of control

Problem: # lookup: T/C of O=C(O)c1ccccc1C(=O)c1ccc(Cl)cc1
Solution: 110 % of control

---

# maps each entry to its T/C
Test system: CD2F1 mice, L1210 leukemia ip, survival T/C
Assay: NCI In Vivo Anticancer Drug Screen. Data for tumor model L1210 Leukemia (intraperitoneal) in CD2F1 (CDF1) mice
Conditions: endpoint: mean survival time; dose: 400.0 mg/kg/injection; schedule: Q04DX003 (ip); vehicle: saline; higher = longer survival
Toxic doses and inconclusive results are not listed. Non-standard residues stand in square brackets, D forms with d. Residues, ends and D or L forms follow the SMILES beside them. ξ: configuration not given here. *: point of attachment. Boc = CC(C)(C)OC(=O)*; ξP = O=C(O)C1CCCN1

Example results:
- Cc1c(C)c(C(=O)O)c(C)c(C)c1C(=O)O: 96 % of control
- O=C(NO)c1ccncc1: 94 % of control

Problem: # lookup: T/C of CC(O)CN1CC(C)OC(C)C1 (stereo not given)
Solution: 101 % of control

Problem: # lookup: T/C of COC(=O)CNC(=O)C1CCCN1C(=O)OC(C)(C)C (stereo not given) (Boc-[ξP]-Gly-OMe)
Solution: 107 % of control

Problem: # lookup: T/C of NC(Cc1ccc([N+](=O)[O-])cc1)C(=O)O (stereo not given)
Solution: 103 % of control

Problem: # lookup: T/C of CCCCCCCCC(O)CCC (stereo not given)
Solution: 100 % of control

Problem: # lookup: T/C of CC1CN(C)CCN1C (stereo not given)
Solution: 98 % of control

Problem: # lookup: T/C of O=C1c2ccccc2CCC12OC2c1ccc(Cl)cc1 (stereo not given)
Solution: 98 % of control

Problem: # lookup: T/C of COc1ccccc1NC(=O)CSC(N)=O
Solution: 91 % of control

Problem: # lookup: T/C of COC(=O)CC(=O)C1(C)CC1
Solution: 96 % of control

Problem: # lookup: T/C of CS(=O)(=O)OCC1C(COS(C)(=O)=O)N(S(C)(=O)=O)S(=O)N1S(C)(=O)=O (stereo not given)
Solution: 91 % of control

Problem: # lookup: T/C of NCCC(=O)CN
Solution: 98 % of control

Problem: # lookup: T/C of CCOC(=O)CCN(C)C
Solution: 100 % of control

Problem: # lookup: T/C of Cc1c(N)c(=O)n(-c2ccccc2)n1C
Solution: 101 % of control

Problem: # lookup: T/C of CC(C)NC(=O)CCCn1c(=O)c2ccccc2c(=O)n1C
Solution: 98 % of control

Just for reference, PubChem BioAssay AID256 is where these values come from.
